The values you see were collected from patent US10213415B2.

target-of-assay: mu opioid receptor (CHO-hMOR cell membranes) (Homo sapiens)
Construct: purchased Receptor Biology, Inc. (Baltimore, Md.); host or cells: CHO cells (recombinant expression)
Sequence (P35372 whole entry): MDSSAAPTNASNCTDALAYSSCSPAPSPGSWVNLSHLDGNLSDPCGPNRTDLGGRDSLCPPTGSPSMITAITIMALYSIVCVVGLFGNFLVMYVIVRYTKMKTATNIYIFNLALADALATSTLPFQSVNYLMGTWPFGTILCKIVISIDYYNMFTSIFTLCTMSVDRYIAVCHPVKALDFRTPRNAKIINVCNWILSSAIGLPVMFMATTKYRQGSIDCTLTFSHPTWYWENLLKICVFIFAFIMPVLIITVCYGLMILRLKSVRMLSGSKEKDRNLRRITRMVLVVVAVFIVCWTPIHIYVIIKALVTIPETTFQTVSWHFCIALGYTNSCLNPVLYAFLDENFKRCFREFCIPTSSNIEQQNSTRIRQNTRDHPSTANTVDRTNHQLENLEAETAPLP
method-summary: Mu Opioid Receptor Functional Assay: [35S]GTPγS Binding in CHO-hMOR Cell Membranes, Versions 1 and 2
Assay type: biochemical
condition-notes: version 2, % inhibition of agonist-stimulated GTPγS binding
Recorded MOR GTP binding assay_v2 (% I) values for a group of compounds are listed next.
Report the figure in % without appending any unit label.

1) COC(=O)c1cc(CN(C(=O)[C@@H](N)Cc2c(C)cc(C(N)=O)cc2C)[C@@H](C)c2nc(-c3ccccc3)c[nH]2)ccc1OC [Cpd 17]    8.71
2) COc1ccc(CN(C(=O)[C@@H](N)Cc2c(C)cc(C(N)=O)cc2C)[C@@H](C)c2nc(-c3ccccc3)c[nH]2)cc1C(=O)NCCO [Cpd 299]    12.11
3) Cc1cc(O)cc(C)c1C[C@H](N)C(=O)N(Cc1cccc(C(=O)O)c1)[C@@H](C)c1nc(-c2ccccc2)c[nH]1 [Cpd 48]    24.53
4) Cc1cc(C(N)=O)cc(C)c1C[C@H](N)C(=O)N(Cc1ccnc(C(=O)O)c1)[C@@H](C)c1nc(-c2ccccc2)c[nH]1 [Cpd 316]    76
5) COC(=O)c1ccc(CN(C(=O)[C@@H](N)Cc2ccc(C(N)=O)cc2)[C@@H](C)c2nc(-c3ccccc3)c[nH]2)o1 [Cpd 303]    1.00

Continue with the compound presented below.
Quick check: MOR GTP binding assay_v2 (% I) of Cc1cc(C(N)=O)cc(C)c1C[C@H](N)C(=O)N(Cc1ccc(C(=O)O)o1)[C@@H](C)c1nc(-c2ccccc2)c[nH]1 [Cpd 256] ?
29.40
